Tested on: DeltatarO mutant
Experiment: S. aureus survival, RN4220 and DeltatarO strains – OD600, teichoic acid synthesis inhibitors, primary screen (AID 463173)
Settings: S. aureus RN4220 wild type/DeltatarO growth, OD600, 18 h, screened at 18.75 µg/mL (by protocol)
In all, about 52,000 compounds went through this assay and about 4,300 (8.3%) were called active. Rule as the data show it: active = survival mostly below about 52% (no sharp cut-off); inactive = mostly above about 56%. The entries come from a sample that favours actives as a whole.
Pick one and only one: class 1 = active, class 0 = inactive

>>> label_class("COc1cccc(C(=O)NCC(C)C)c1")
"class 0"
>>> label_class("COc1ccccc1CCNC(=O)C1CCN(c2nnc(C)c3c(C)n(-c4ccc(C)cc4)nc23)CC1")
"class 0"

### Prompt Please state the recorded outcome for this compound: COc1ccc(C)cc1NC(=O)c1cc(S(=O)(=O)N2CCC(C)CC2)ccc1F
### Response class 0

### Prompt Please state the recorded outcome for this compound: CCS(=O)(=O)N1CCc2cc(C(=O)Nc3cc(C(F)(F)F)ccc3Cl)ccc21
### Response class 0

### Prompt Please state the recorded outcome for this compound: Cc1nnc(N2CCN(c3cccc(C(F)(F)F)c3)CC2)c2c1nnn2Cc1ccccc1
### Response class 0

### Prompt Please state the recorded outcome for this compound: Cc1cc2c(cc1S(=O)(=O)N(CCN(C)C)Cc1ccco1)OCC(=O)N2
### Response class 0

### Prompt Please state the recorded outcome for this compound: Cc1cc(N2CCN(c3cccc(C)c3C)CC2)n2nc(C)c(-c3ccc(Cl)cc3)c2n1
### Response class 0

### Prompt Please state the recorded outcome for this compound: Cc1cc2c(cc1S(=O)(=O)N(CCN(C)C)Cc1ccccc1)OCC(=O)N2
### Response class 0

### Prompt Please state the recorded outcome for this compound: Cc1cc2c(cc1S(=O)(=O)N(CCO)Cc1ccccc1)OCC(=O)N2
### Response class 1

### Prompt Please state the recorded outcome for this compound: COc1cccc(CNC(=O)Cn2nc(N3CCN(c4ccccc4OC)CC3)ccc2=O)c1
### Response class 0

### Prompt Please state the recorded outcome for this compound: CC(NC(=O)CN1C(=O)COc2ccc(S(=O)(=O)N3CCCCCC3)cc21)c1ccccc1 (stereo unspecified)
### Response class 0

### Prompt Please state the recorded outcome for this compound: COc1cc(Cl)c(C)cc1NC(=O)c1cc(S(=O)(=O)N2CCCC2)ccc1F
### Response class 1

### Prompt Please state the recorded outcome for this compound: CCCCOc1ccc(C2C(=O)N(C3CCCCC3)CC(=O)N2CCCC)cc1 (stereo unspecified)
### Response class 0

### Prompt Please state the recorded outcome for this compound: COc1ccc(C2CC(=O)c3cc(-c4nc(-c5ccc(Cl)cc5)c(C)s4)c(=O)[nH]c3C2)cc1 (stereo unspecified)
### Response class 1

### Prompt Please state the recorded outcome for this compound: Cc1cc2c(cc1S(=O)(=O)N(C)CC(=O)Nc1ccc(C#N)cc1)OCC(=O)N2
### Response class 0

### Prompt Please state the recorded outcome for this compound: Cc1ccc(C)c(N2CCN(S(=O)(=O)c3ccc(F)c(C(=O)Nc4ccc(Cl)cc4Cl)c3)CC2)c1
### Response class 0

### Prompt Please state the recorded outcome for this compound: Cc1ccc(-c2nc(CS(=O)(=O)CC(=O)NCc3ccccc3Cl)c(C)o2)cc1
### Response class 0

### Prompt Please state the recorded outcome for this compound: Cc1oc(-c2ccccc2Cl)nc1CS(=O)CC(=O)NCc1ccccc1Cl (stereo unspecified)
### Response class 0

### Prompt Please state the recorded outcome for this compound: Cc1ccc(-c2nc(CS(=O)CC(=O)NCc3ccccc3Cl)c(C)o2)cc1 (stereo unspecified)
### Response class 1
